Molecular target: CVF-Bb complex (Homo sapiens (Human))
Experiment: biochemical
Format: biochemical
Conditions: read-out: IC50
Description: CVF-Bb complex, prepared from purified cobra venom factor, (3 nM) is incubated with a compound of the disclosure at various concentrations for 10 minutes at room temperature in PBS (pH 7.4) containing 10 mM MgCl2 and 0.05% (w/v) CHAPS. Human Complement C3 substrate is added to a final concentration of 1 μM. […] The product of the reaction, C3a, is quantified by means of an enzyme-linked-immunosorbent assay and/or denaturing gel electrophoresis (SDS-PAGE). […]
pIC50: −log10 of the molar value.
Measured metric: pIC50

INSERT INTO measurements (compound, recorded_measurement) VALUES
  ('COc1cc(C)c2[nH]ccc2c1CN1CC[C@H]2C[C@H]1c1ccc(C(=O)O)cc1OCCn1cc(nn1)CO2', 6.55),
  ('COc1cc(C)c2[nH]ccc2c1CN1CC[C@H]2C[C@H]1c1ccc(C(=O)NS(C)(=O)=O)cc1CCCCCCCO2', 6.59),
  ('COc1cc(C)c2[nH]ccc2c1CN1CC[C@H]2C[C@H]1c1ccc(C(=O)O)cc1CCCCCCCCCO2', 6.89),
  ('COc1cc(C)c2[nH]ccc2c1CN1CC[C@H]2C[C@H]1c1ccc(C(=O)O)cc1OCC/C=C\CO2', 6.47),
  ('COc1cc(C)c2[nH]ccc2c1CN1CC[C@H]2C[C@H]1c1ccc(C(=O)O)cc1/C=C/CCCCCCCO2 [Ex. 64]', 6.90);
